# experimental.system: T1, Human ST2-his (human, UniProt Q01638-2 19-328, limits assumed)
# T1 construct: Expressed in CHO-K1; The printed range starts at Met1; also called human ST2 fused with a 6-histidine tag at the C-terminus
# T1 sequence: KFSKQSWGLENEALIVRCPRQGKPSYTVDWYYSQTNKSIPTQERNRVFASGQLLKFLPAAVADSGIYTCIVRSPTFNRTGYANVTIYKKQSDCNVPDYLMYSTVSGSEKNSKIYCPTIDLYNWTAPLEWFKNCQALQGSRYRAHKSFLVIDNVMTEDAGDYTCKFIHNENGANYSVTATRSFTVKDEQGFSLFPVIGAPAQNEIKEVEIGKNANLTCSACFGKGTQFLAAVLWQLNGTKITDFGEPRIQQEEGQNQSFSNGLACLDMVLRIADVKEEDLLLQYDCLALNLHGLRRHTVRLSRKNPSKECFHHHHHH
# assay: SPR Biacore X100, antibody captured on protein A chip, human ST2-his injected, pH 7.4
In this section we review reported kon values for a set of binders.

# binder, units.of.measure, kon
data = [
    ("5888-153-H3L2 (antibody, human IgG4 S228P, kappa, V domains shown, Humanized antibody) VH: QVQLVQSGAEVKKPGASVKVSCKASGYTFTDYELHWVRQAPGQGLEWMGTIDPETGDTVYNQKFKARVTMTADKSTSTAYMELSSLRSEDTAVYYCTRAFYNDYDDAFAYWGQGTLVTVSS VL: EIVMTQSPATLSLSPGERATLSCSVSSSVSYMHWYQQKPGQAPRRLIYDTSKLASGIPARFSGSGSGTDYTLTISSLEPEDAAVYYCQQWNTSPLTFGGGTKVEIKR", "M⁻¹ s⁻¹", "1.65e+06"),
    ("5886-156-H1L1 (antibody, human IgG4 S228P, kappa, V domains shown, Humanized antibody) VH: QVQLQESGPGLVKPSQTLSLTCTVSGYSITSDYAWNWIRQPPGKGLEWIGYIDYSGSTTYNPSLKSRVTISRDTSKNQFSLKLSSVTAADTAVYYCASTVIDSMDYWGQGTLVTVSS VL: DIVLTQSPASLAVSPGQRATITCRASKSVSTSGHSYMHWYQQKPGQPPKLLIYLASNLESGVPARFSGSGSGTDFTLTINPVEANDAANYYCQHSREFPFTFGQGTKVEIKR", "M⁻¹ s⁻¹", "1.45e+06"),
    ("5888-379-H2L2 (antibody, human IgG4 S228P, kappa, V domains shown, Humanized antibody) VH: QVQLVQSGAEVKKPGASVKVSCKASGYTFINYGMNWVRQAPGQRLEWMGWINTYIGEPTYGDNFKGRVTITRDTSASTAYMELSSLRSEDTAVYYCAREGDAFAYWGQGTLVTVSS VL: DIVMTQSPDSLAVSLGERATINCKSSQSLLYSGNQNNYLAWYQQKPGQPPKLLIYGASTRESGVPDRFSGSGSGTDFTLTISSLQAEDVAVYYCQNDHSYPYTFGGGTKVEIKR", "M⁻¹ s⁻¹", "1.36e+06"),
    ("5888-379-H2L1 (antibody, human IgG4 S228P, kappa, V domains shown, Humanized antibody) VH: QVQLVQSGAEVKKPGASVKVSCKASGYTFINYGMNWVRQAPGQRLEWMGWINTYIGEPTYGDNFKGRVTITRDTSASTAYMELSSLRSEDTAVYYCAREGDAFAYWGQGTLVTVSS VL: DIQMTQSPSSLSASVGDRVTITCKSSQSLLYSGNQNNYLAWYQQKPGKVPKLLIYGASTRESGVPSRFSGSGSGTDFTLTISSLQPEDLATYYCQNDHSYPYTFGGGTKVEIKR", "M⁻¹ s⁻¹", 979000),
    ("5888-153-H3L1 (antibody, human IgG4 S228P, kappa, V domains shown, Humanized antibody) VH: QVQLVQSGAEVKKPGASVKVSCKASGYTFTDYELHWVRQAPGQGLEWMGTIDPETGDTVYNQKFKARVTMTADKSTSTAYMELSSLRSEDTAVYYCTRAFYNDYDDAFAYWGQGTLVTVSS VL: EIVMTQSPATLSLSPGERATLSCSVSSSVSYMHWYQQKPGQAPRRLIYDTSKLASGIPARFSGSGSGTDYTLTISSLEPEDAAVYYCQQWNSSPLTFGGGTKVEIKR", "M⁻¹ s⁻¹", "1.53e+06"),
    ("5887-41-H1L0 (antibody, human IgG4 S228P, kappa, V domains shown, Humanized antibody) VH: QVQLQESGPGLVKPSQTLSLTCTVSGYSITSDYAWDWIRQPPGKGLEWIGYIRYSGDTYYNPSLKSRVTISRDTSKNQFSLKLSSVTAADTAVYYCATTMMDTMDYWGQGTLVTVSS VL: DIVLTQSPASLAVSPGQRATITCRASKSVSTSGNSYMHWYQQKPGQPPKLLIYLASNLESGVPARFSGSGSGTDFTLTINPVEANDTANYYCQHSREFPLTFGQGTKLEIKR", "M⁻¹ s⁻¹", 467000),
]
